Exercise: for every item that follows, state its recorded GI50.
System: COLO 205
experiment: NCI tumour cell line growth inhibition, 48 h
Active and inactive are the calls of the source. Cut-off read from the data, not from the text of the source: active = GI50 up to about 1.1 µM and inactive = higher.

Entry `Nc1nncc2[nH]cnc12` needs its GI50 filled in; supply it.
24.2 µM (inactive)

Entry `CN(C)NC(=O)NC12CC3CC(CC(C3)C1)C2` needs its GI50 filled in; supply it.
> 100 µM (inactive)

Entry `COC(=O)c1nn(C(=N)c2ccc(Cl)cc2)c2c1CCCCC2` needs its GI50 filled in; supply it.
> 100 µM (inactive)

###

Tested on: SR
experiment: NCI tumour cell line growth inhibition, 48 h
The source made the active and inactive calls. Cut-off read from the data, not from the text of the source: active = GI50 up to about 1.1 µM and inactive = higher.
In this exercise, the only acceptable responses are 1 (active), -1 (inactive)

Tell me the recorded outcome of this test for `COC(=O)c1c(N)n[nH]c1N` .
-1

Tell me the recorded outcome of this test for `O=c1cnn(C/C=C/CO)c(=O)[nH]1` .
-1

Tell me the recorded outcome of this test for CCCC1C(CC)C(NC)C(C#N)(C#N)C1(C#N)C#N (stereo not given) .
-1

Tell me the recorded outcome of this test for `CCC(=S)N(C)O` .
1

Tell me the recorded outcome of this test for `Clc1ccc2oc(CCC3CCCCC3)nc2c1` .
-1

Tell me the recorded outcome of this test for `Nc1nc(SCc2ccccc2Cl)c2[nH]cnc2n1` .
-1

Tell me the recorded outcome of this test for `Nc1cc2c3c(cccc3c1)NC2=O` .
-1

Tell me the recorded outcome of this test for C=CCc1cc(OC)c2c(c1)C(OC(C)=O)CC(c1ccc(OC)c(OC)c1)O2 (stereo not given) .
-1

Tell me the recorded outcome of this test for `CC(C)(C)C(=O)CP(=O)(O)O` .
-1

Tell me the recorded outcome of this test for Cc1cc(Cl)ccc1NC(=O)C1C(=O)N(c2ccc(Cl)cc2C)C(=O)/C1=N\N (stereo not given) .
-1

Tell me the recorded outcome of this test for `O=c1[nH]/c(=C/c2cccs2)c(=O)[nH]/c1=C/c1ccc(OCc2ccccc2)cn1` .
1

Tell me the recorded outcome of this test for `O=C1OCC2=Nc3cccc4cccc(c34)N12` .
-1

Tell me the recorded outcome of this test for C=C1C(=O)OC2/C=C(\C)C(OC(C)=O)C3OC3C(C)(O)CC(OC(=O)/C(C)=C/C)C12 (stereo not given) .
-1

Tell me the recorded outcome of this test for `CC(C)(Cc1ccccc1)N1C(=O)N1C(C)(C)Cc1ccccc1` .
-1

Tell me the recorded outcome of this test for `COc1cc(OC)cc(C(=O)CC(=O)c2cc(OC)cc(OC)c2)c1` .
-1

###

System: HOP-62
experiment: NCI tumour cell line growth inhibition, 48 h
Activity calls are given as the source filed them. Cut-off read from the data, not from the text of the source: active = GI50 up to about 1.1 µM and inactive = higher.
readoutType: GI50

Entry C=C[C@]1(C)CC[C@]2(C)C(CC[C@@]3(C)C2C[C@H](O)[C@H](O)[C@@]3(C)O)C1 (some centres undefined) needs its GI50 filled in; supply it.
> 100 µM (inactive)

Entry `CC(C)=CC(=O)Cc1nc2ccccc2[nH]c1=O` needs its GI50 filled in; supply it.
76 µM (inactive)

Entry `O=C(O)Cc1ccc(/N=N/c2c(O)c(C(=O)O)cc3ccccc23)cc1` needs its GI50 filled in; supply it.
> 100 µM (inactive)

Entry `Cn1c2ccccc2n2c3ccccc3c(=O)c(C#N)c12` needs its GI50 filled in; supply it.
19.2 µM (inactive)

Entry `O=C1OCC2=Nc3cccc4cccc(c34)N12` needs its GI50 filled in; supply it.
> 100 µM (inactive)

Entry `CCN(CC)c1nc(NC2CCCCC2)c2nc(N(CC)CC)nc(NC3CCCCC3)c2n1` needs its GI50 filled in; supply it.
73.1 µM (inactive)

Entry `O=[N+]([O-])c1ccc(COc2cccc3cccnc23)cc1` needs its GI50 filled in; supply it.
30 µM (inactive)

Entry O=C(CC(=O)N1N=C(N(c2ccccc2)c2ccccc2)CC1c1ccccc1)Nc1ccccc1 (centres undefined) needs its GI50 filled in; supply it.
48.5 µM (inactive)

Entry `CCOC(=O)CN(c1ccccc1)c1nc(=[N+](C)C)ss1` needs its GI50 filled in; supply it.
33 µM (inactive)

Entry `Cc1c(NC(=O)c2cc([N+](=O)[O-])cc([N+](=O)[O-])c2)c(=O)n(-c2ccccc2)n1C` needs its GI50 filled in; supply it.
> 100 µM (inactive)

Entry `O=C1NC(=O)/C(=C\c2ccncc2)N1` needs its GI50 filled in; supply it.
> 100 µM (inactive)

Entry `CC(=O)O[C@H]1CC[C@@]2(C)C(=CC[C@@H]3[C@@H]2CC[C@]2(C)Nc4c(cnn4S(C)(=O)=O)C[C@@H]32)C1` needs its GI50 filled in; supply it.
89.9 µM (inactive)

Entry `O=C(/C=C/c1ccccc1O)CC(=O)/C=C/c1ccccc1O` needs its GI50 filled in; supply it.
11.8 µM (inactive)

Entry COC(=O)C(Cc1cn(C(C)n2cc(CC(NC(C)=O)C(=O)OC)c3ccccc32)c2ccccc12)NC(C)=O (centres undefined) needs its GI50 filled in; supply it.
> 100 µM (inactive)
